Listed here: items and their measured Binding affinity (RU).
# STUDY_SYSTEM: acetylcholine receptor
# TEST_DESCRIPTION: SPR, receptor on CM5 chip, peptide 10 µM
// units = RU; emit number, no label

| BINDER | Binding affinity (RU) |
| --- | --- |
| KKQQQR [6mer-1-73] | 142 |

INPUT: What measured Binding affinity (RU) goes with RKRFLR [6mer-1-133] ?
OUTPUT: 154

INPUT: What measured Binding affinity (RU) goes with RRSLSR [6mer-1-115] ?
OUTPUT: 133

INPUT: What measured Binding affinity (RU) goes with KRVQQR [6mer-1-80] ?
OUTPUT: 133
